Data provenance: paper PMC4336329

Each entry below lists one item and its recorded hERG current change (%, negative = inhibition) at 10uM value.
- targetUnderTest: human ether-à-go-go-related gene (hERG) potassium channel (human);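 note: peak tail current of the secondary pulse compared with the same well before compound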
- Sequence (Q12809 whole entry, looked up): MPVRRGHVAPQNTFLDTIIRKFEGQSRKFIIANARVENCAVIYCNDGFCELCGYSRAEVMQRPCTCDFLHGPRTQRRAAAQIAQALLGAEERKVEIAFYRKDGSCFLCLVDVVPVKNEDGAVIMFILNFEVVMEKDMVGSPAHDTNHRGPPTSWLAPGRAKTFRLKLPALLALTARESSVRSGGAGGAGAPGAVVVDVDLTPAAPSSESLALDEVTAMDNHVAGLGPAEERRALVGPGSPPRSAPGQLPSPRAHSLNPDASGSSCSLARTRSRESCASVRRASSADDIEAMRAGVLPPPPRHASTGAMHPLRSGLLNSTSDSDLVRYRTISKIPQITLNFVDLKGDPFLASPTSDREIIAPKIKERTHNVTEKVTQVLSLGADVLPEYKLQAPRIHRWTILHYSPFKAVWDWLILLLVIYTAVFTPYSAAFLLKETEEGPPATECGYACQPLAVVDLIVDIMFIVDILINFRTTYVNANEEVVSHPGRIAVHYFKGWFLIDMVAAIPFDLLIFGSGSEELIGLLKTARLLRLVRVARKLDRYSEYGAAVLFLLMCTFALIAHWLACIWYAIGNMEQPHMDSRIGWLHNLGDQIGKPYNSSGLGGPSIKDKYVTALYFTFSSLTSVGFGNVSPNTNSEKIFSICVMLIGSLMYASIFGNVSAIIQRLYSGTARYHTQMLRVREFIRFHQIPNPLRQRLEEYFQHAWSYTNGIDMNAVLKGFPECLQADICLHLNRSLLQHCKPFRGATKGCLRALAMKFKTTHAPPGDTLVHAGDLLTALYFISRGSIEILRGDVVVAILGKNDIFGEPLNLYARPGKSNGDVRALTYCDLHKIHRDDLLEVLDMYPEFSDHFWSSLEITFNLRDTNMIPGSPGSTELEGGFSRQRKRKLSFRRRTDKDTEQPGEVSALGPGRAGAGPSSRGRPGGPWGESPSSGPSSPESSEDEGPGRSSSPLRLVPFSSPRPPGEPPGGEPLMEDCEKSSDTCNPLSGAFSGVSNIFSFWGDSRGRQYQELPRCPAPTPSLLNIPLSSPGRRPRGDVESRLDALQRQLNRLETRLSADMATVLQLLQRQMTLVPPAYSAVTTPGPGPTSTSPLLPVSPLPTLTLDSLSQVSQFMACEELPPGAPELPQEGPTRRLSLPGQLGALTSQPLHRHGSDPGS
- experimentalDetails: primary screen, population patch clamp on CHO cells stably expressing hERG; higher = less effect of the substance
Out of some 310,000 compounds screened, about 14,000 (4.5%) showed an effect of 50% or more. The effect is printed as a negative number. What follows is part of a selection rich in strong results, with near analogues and random picks from the rest.
Please reply with the bare figure in % and do not write the unit itself.

>>> df
                                   molecule  resultvalue
0  O=C(NCCCn1ccnc1)/C(=C/c1ccccc1)NC(=O)c1ccccc1        -70.3
1  CCOC(=O)c1ccc(NC(=O)CSc2nc(=O)n(CCN3CCOCC3)c3c2CCC3)cc1          -32
2  COc1ccc(OC2CCN(S(=O)(=O)c3ccc(C(C)=O)cc3)CC2)cc1        -19.7
3  CCN(Cc1ccccc1)C(=O)COC(=O)c1cc(S(=O)(=O)Nc2c(C)n(C)n(-c3ccccc3)c2=O)ccc1C        -74.9
4               CCCCc1c(C)nc2ccccc2c1SCCC#N        -50.6

Exercise: Please report the measured hERG current change (%, negative = inhibition) at 10uM for CCCCc1ccc(NC(=O)CSc2nc(=O)n(CCN3CCOCC3)c3c2CCC3)cc1
Key: -66.5

Exercise: Please report the measured hERG current change (%, negative = inhibition) at 10uM for CC[C@@H](C)C(NC(=O)OC(C)(C)C)c1cn([C@@H](Cc2cc3ccccc3[nH]2)C(=O)N2CCN(C(=O)OC(C)(C)C)CC2)nn1 (stereo partly drawn)
Key: -13.4

Exercise: Please report the measured hERG current change (%, negative = inhibition) at 10uM for COc1ccc(CCN(C)C2CCCN(C(=O)c3ccnn3C)C2)cc1OC (stereo not drawn)
Key: -21.1

Exercise: Please report the measured hERG current change (%, negative = inhibition) at 10uM for CN(C)c1ccc(/C=C(\NC(=O)c2ccccc2)C(=O)NCCCn2ccnc2)cc1
Key: -9.78
